Experiment: Repeat-dose dose-escalation study of controlled release anagrelide: pharmacokinetics
Type: in vivo, human
Settings: human, plasma, oral, 0.6 mg, dose-normalized to 0.2 mg; cohort 3 (0.6 mg); day 1; read-out: Cmax
test.readout: Cmax

Task item: Request the reported Cmax associated with O=C1CN2Cc3c(ccc(Cl)c3Cl)N=C2N1 [anagrelide]
Reply: 0.304 ng/mL
